assay: reduction of CTGF mRNA in DLD1 cells – DLD1 colon cancer cells, RT-qPCR, single point, primary screen (AID 743449); details: 24 h, at 12.5 µM;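 note: higher means stronger suppression of CTGF expression like dasatinib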
Among all 9,900 compounds or so, about 90 (0.9%) were called active. Another 2% or so got no clear call; they are omitted.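 Rule for the calls: active = mean normalized replicate activity at least 50 and at least half of replicates each reaching 50; inconclusive = only one of the two criteria met; inactive = neither criterion met.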 Many of the other results were omitted from the sample, so actives are more common in it than they were.
Outcome codes: T for active, F for inactive

| TEST SMILES | ANSWER LABEL |
| --- | --- |
| O=C(Cc1ccncc1)N1CCCCN2[C@H](C1)[C@H](c1ccc(C#Cc3ccccc3F)cc1)[C@@H]2CO | T |
| O=C(Cc1ccncc1)N1CCCCN2[C@@H](CO)[C@H](c3ccc(C#Cc4ccccc4F)cc3)[C@@H]2C1 | F |
| O=C(Cc1ccncc1)N1CCCCN2[C@H](C1)[C@@H](c1ccc(C#Cc3ccccc3F)cc1)[C@@H]2CO | F |
| COc1cccc(-c2ccc([C@@H]3[C@@H](CO)N4CCCCN(C(=O)Cc5ccncc5)C[C@@H]34)cc2)c1 | F |
| O=C(Cc1ccncc1)N1CCCCN2[C@H](CO)[C@@H](c3ccc(C#Cc4ccccc4F)cc3)[C@H]2C1 | T |
| O=C(Cc1ccncc1)N1CCCCN2[C@@H](CO)[C@@H](c3ccc(C#Cc4ccccc4F)cc3)[C@@H]2C1 | F |
| COc1cccc(-c2ccc([C@H]3[C@@H](CO)N4CCCCN(C(=O)Cc5ccncc5)C[C@@H]34)cc2)c1 | F |
| O=C(Cc1ccncc1)N1CCCCN2[C@H](CO)[C@@H](c3ccc(C#Cc4ccccc4F)cc3)[C@@H]2C1 | F |
